# assay system: human platelet PLA2 (Homo sapiens, UniProt P14555)
# Construct: The PLA2 enriched supernatant fluid is removed and the amount of protein is determined by the Lowry method; from tissue; host or cells: expired human platelets from the blood bank (acid extract, not purified)
# Sequence (P14555 21-144): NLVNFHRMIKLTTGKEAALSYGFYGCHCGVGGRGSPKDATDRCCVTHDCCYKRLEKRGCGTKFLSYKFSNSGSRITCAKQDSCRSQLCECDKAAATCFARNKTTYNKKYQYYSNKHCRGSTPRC
# protocol description: Inhibition of cell free human platelet PLA2 (hydrolysis of [3H]-AA labelled E. coli phospholipids)
# Type: biochemical
# test conditions: at 50 μM; pH 7.4, 37° C., 30 min
quantity name: inhibition at 50 µM (%)

COC(=O)C1(C(F)(F)CCCCOc2ccc(Cl)cc2)CO1 (stereo not shown) | 91.1
COC(=O)C1(C(F)(F)CCCCCOc2ccc(Cl)cc2)CO1 (stereo not shown) | 82
COC(=O)C1(C(F)=CCCCOc2ccc(Cl)cc2)CO1 (stereo not shown) | 99.5
COC(=O)C1(C(=O)CCCCOc2ccc(Cl)cc2)CO1 (stereo not shown) | 83.2
COC(=O)C1(C(F)CCCCc2ccccc2)CO1 (single isomer, unassigned) [Example 1 (isomer A)] | 88
COC(=O)C1(C(=O)CCCCCOc2ccc(Cl)cc2)CO1 (stereo not shown) | 88.4
COC(=O)C1(C(F)CCCCCOc2ccc(Cl)cc2)CO1 (single isomer, unassigned) [3 (isomer A)] | 84.6
COC(=O)C1(C(F)CCCCOc2ccc(Cl)cc2)CO1 (single isomer, unassigned) [2 (isomer A)] | 83.8
COC(=O)C1(C(=O)CCCCc2ccccc2)CO1 (stereo not shown) | 81.8
CCOC(=O)C1(CCCCCc2ccc(Cl)cc2)CO1 (stereo not shown) | 97.2

====

# Lookup of reported pIC50 keyed by entry
# assay system: human platelet PLA2 (Homo sapiens, UniProt P14555)
# Construct: The PLA2 enriched supernatant fluid is removed and the amount of protein is determined by the Lowry method; from tissue; host or cells: expired human platelets from the blood bank (acid extract, not purified)
# protocol description: Inhibition of cell free human platelet PLA2 (hydrolysis of [3H]-AA labelled E. coli phospholipids)
# Assay type: biochemical
Formally, pIC50 is defined as -log10 of the concentration c, with c in mol/L.

CCCCC/C=C\C/C=C\C/C=C\C/C=C\CCCC(=O)O [Arachidonic Acid, reference compound] | 5.00

Qu. Look up and state reported pIC50 for O=C(CBr)c1ccc(Br)cc1 [para-Bromophenacyl bromide, reference compound]
Ans. 4.63

====

# assay system: human platelet PLA2 (Homo sapiens)
# Construct: The PLA2 enriched supernatant fluid is removed and the amount of protein is determined by the Lowry method; from tissue; host or cells: expired human platelets from the blood bank (acid extract, not purified)
# protocol description: Inhibition of cell free human platelet PLA2 (hydrolysis of [3H]-AA labelled E. coli phospholipids)
# Format: biochemical
# test conditions: cell free human platelet PLA2, pH 7.4, 37° C., 30 min; read-out: IC50 (PLA2)
quantity name: IC50 (µM)

COC(=O)C1(C(F)(F)CCCCCOc2ccc(Cl)cc2)CO1 (stereo not shown) [7 (gem-difluoro compound)] | 11.3

P = COC(=O)C1(C(F)(F)CCCCOc2ccc(Cl)cc2)CO1 (stereo not shown) [6 (gem-difluoro compound)]
Q = COC(=O)C1(C(=O)CCCCc2ccccc2)CO1 (stereo not shown) [Example 9]
R = COC(=O)C1(C(F)CCCCCOc2ccc(Cl)cc2)CO1 (single isomer, unassigned) [3 (isomer A)]
Qu. Put the entries in order of IC50, starting with the largest number. Labels, requested order.
Ans. R, P, Q
(R: 19.2 µM, P: 8.4 µM, Q: 3.2 µM)

1 = COC(=O)C1(C(=O)CCCCCOc2ccc(Cl)cc2)CO1 (stereo not shown) [Example 7A]
2 = COC(=O)C1(C(F)CCCCc2ccccc2)CO1 (single isomer, unassigned) [Example 1 (isomer A)]
3 = COC(=O)C1(C(=O)CCCCOc2ccc(Cl)cc2)CO1 (stereo not shown) [Example 6A]
Qu. Put the entries in order of IC50, starting with the largest number. Labels, requested order.
Ans. 3, 1, 2
(3: 10.7 µM, 1: 7.1 µM, 2: 2.6 µM)
